Assay: STM_H9_OrnithineISnorm_perc: Stemina devTOX quickPredict H9 human embryonic stem cell (hESC)-based Assay for Ornithine (ORN) Metabolite Biomarker, Normalized (AID 2283712);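 also: ornithine released into spent medium during last day measured by mass spectrometry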
Calls of active or inactive are those of the source. The calls were made as follows: active = hit-call score of the fitted dose curve at least 0.9, where 1 is the maximum; inactive = score below 0.9.
Hi there, use one of these labels in your reply, thanks! true (active), false (inactive)

**Q:** Test call, this compound: CCCCOC(=O)c1ccc(O)cc1
**A:** true

**Q:** Test call, this compound: CC(C)(c1cc(Br)c(O)c(Br)c1)c1cc(Br)c(O)c(Br)c1
**A:** false

**Q:** Test call, this compound: O=C(Nc1ccc(Cl)cc1)Nc1ccc(Cl)c(Cl)c1
**A:** true

**Q:** Test call, this compound: CCCCCCCCN(C)CCCCCCCC
**A:** false

**Q:** Test call, this compound: CC[C@H](NC(=O)c1cc(F)ccc1NS(=O)(=O)c1cccc2cccnc12)c1ccccc1
**A:** false

###

Experiment: APR_HepG2_P-H2AX_24hr: Apredica 24-hour HepG2 Assay for H2AX Phosphorylation (AID 2282920)
Settings: high-content imaging, actives raise or lower the signal
The source made the active and inactive calls. How the source made its calls: active means hit-call score of the fitted dose curve at least 0.9, where 1 is the maximum; inactive means score below 0.9.
Measurement label: AC50

Some solved cases for reference:
**Q:** Give its AC50 value. Item: Cc1cn([C@H]2C[C@H](N=[N+]=[N-])[C@@H](CO)O2)c(=O)[nH]c1=O
**A:** inactive

**Q:** Give its AC50 value. Item: CC(C)(C)c1cc(/C=C2\SC(N)=NC2=O)cc(C(C)(C)C)c1O
**A:** 55.2 µM (active)

**Q:** Give its AC50 value. Item: Oc1ccc2ccccc2c1
**A:** inactive

**Q:** Give its AC50 value. Item: O=C(O)c1ccccc1C(=O)OCc1ccccc1
**A:** inactive

Continuing:
**Q:** Give its AC50 value. Item: CN(C)C(=O)C1(N2CCCCC2)CCN(CC[C@@]2(c3ccc(Cl)c(Cl)c3)CN(C(=O)c3ccccc3)CCO2)CC1
**A:** 19.6 µM (active)

**Q:** Give its AC50 value. Item: CN1C(=O)N(c2ccccc2Br)Cc2cnc(Nc3ccc4c(c3)OCC(CO)O4)nc21 (stereo not given)
**A:** 5.05 µM (active)

**Q:** Give its AC50 value. Item: CCOC(=O)O[C@H](C)OC(=O)c1ccc2c(c1)cc(C(=O)NC1CCN(C(C)C)CC1)n2Cc1cc(-c2ccc(Cl)s2)on1
**A:** 94.5 µM (active)

**Q:** Give its AC50 value. Item: CCN(CC)C(=O)c1cc(S(=O)(=O)Cc2ccccc2)c(N2CCC(c3ccccc3)CC2)cc1N(CC)CCN(C)C
**A:** 1.93 µM (active)

**Q:** Give its AC50 value. Item: CCCCCCCCOc1ccc(C(=O)c2ccccc2)c(O)c1
**A:** inactive

**Q:** Give its AC50 value. Item: OCCO
**A:** inactive

**Q:** Give its AC50 value. Item: O=C(Nc1ccc(Cl)cc1)Nc1ccc(Cl)c(Cl)c1
**A:** 4.63 µM (active)

**Q:** Give its AC50 value. Item: CCN(Cc1cccnc1)C(=O)c1cccc(Cl)c1[C@]1(C)C(=O)N(Cc2ccc(OC)cc2OC)c2ccc(Cl)cc21
**A:** inactive

**Q:** Give its AC50 value. Item: c1ccc(C[n+]2cccc3ccccc32)cc1
**A:** 106 µM (active)

**Q:** Give its AC50 value. Item: CCN(Cc1cccc(S(=O)(=O)O)c1)c1ccc(C(=C2C=CC(=[N+](CC)Cc3cccc(S(=O)(=O)O)c3)C=C2)c2ccccc2S(=O)(=O)[O-])cc1
**A:** inactive

**Q:** Give its AC50 value. Item: Oc1ccccc1
**A:** inactive
